# measured_on: T1, human CCR8 (human, UniProt P51685 1-355)
# T1 construct: Full-length human CCR8 stably expressed on CHO or HEK293 cells; also endogenous on HuT78 cells in one ADCC assay; also called hCCR8; CHO-hCCR8
# protocol_summary: flow cytometry, purified Fab on CHO-hCCR8 cells
assay_metric: pEC50
Schema: pEC50 number; meaning minus log10 of the concentration expressed in molar units.

I have this binder here, 144D2 Fab antibody (Fab, V domains shown, also called clone 144D2; 144D2 (female parent)) VH: EVQLVESGGGLVQPKGSLKLSCAASGFTFNAFAMNWVRQAPGKGLEWVARIRSKSNNYATYYADSVIDRFTISRDDSQSMLYLQMNNLKTEDTAMYYCVRGKEAGAYYAMDYWGQGTSVTVSS VL: DIVMTQAAPSVPVTPGESVSISCRSSKSLLHSNGNTYLYWFLQRPGQSPQLLIYRMSNLASGVPDRFSGSGSGTAFTLRISRVEAEDVGVYYCMQHLEYPLTFGAGTKLEIK , and I need its recorded pEC50.
8.55

Also need 144D2 M56G (Fab, V domains shown, Purified Fab mutant) VH: EVQLVESGGGLVQPKGSLKLSCAASGFTFNAFAMNWVRQAPGKGLEWVARIRSKSNNYATYYADSVIDRFTISRDDSQSMLYLQMNNLKTEDTAMYYCVRGKEAGAYYAMDYWGQGTSVTVSS VL: DIVMTQAAPSVPVTPGESVSISCRSSKSLLHSNGNTYLYWFLQRPGQSPQLLIYRGSNLASGVPDRFSGSGSGTAFTLRISRVEAEDVGVYYCMQHLEYPLTFGAGTKLEIK , thanks.
8.31

Here is the next binder: 144D2 N33R (Fab, V domains shown, Purified Fab mutant) VH: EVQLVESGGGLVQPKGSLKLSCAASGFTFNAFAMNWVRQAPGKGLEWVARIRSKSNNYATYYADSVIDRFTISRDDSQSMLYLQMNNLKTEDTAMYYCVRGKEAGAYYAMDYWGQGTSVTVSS VL: DIVMTQAAPSVPVTPGESVSISCRSSKSLLHSRGNTYLYWFLQRPGQSPQLLIYRMSNLASGVPDRFSGSGSGTAFTLRISRVEAEDVGVYYCMQHLEYPLTFGAGTKLEIK
8.17

# iterate: 144D2 G34Y (Fab, V domains shown, Purified Fab mutant) VH: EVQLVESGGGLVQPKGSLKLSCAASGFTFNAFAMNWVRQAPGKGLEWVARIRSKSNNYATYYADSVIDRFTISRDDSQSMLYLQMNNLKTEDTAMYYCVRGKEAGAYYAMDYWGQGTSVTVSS VL: DIVMTQAAPSVPVTPGESVSISCRSSKSLLHSNYNTYLYWFLQRPGQSPQLLIYRMSNLASGVPDRFSGSGSGTAFTLRISRVEAEDVGVYYCMQHLEYPLTFGAGTKLEIK
8.65
